- experimental details: label from the status in PepcDB records
property name: protein production

# query sequence, protein production
records = [
    ("MTGRLVLAATPMGDVGDASPRLRTALGTADVVAAEDTRRTKALASALDVTITGKVVSFYDQVETARLPALVADVASGKTVLLVTDAGMPSVSDPGYRLVSACVAEDLAVTCLPG", "failed"),
    ("MRFFYFSGEIMEKILVIRNDKLGDFMQAWPAFAMLKASNPKLKLTALVPSYTASLAEICPFIDHVIIDSKKNDKTDFKRLVQEIKAQQFDGMISFFSNTHNGKLAWKSGIKYRLAPATKWVQILYNHRLTQRRSRSEKSEAEYNQDLVRTFLQKHNMPVVEPKPPYLIFEKSAVENQRVFLQENLGLSANKKWIFVHSGSGGSATNLSLAQYADLIKGLLAEFDCNVVLTAGPGESEKAYELANLVNDLRVAIYDKNKGLVDFAHSLACADLFIAGSTGPLHLSSAFNIPTIGFYPNSRSSQPRRWKPINDVDKHIAFCPPAGKESQMNLELISIDNALAEISLFIRNMWQTSNNI", "failed"),
    ("MRPKANQNHKLKVLLVFLLATLILIFIVRSTLTSSQEHQTPQETRSTRCSGACNKLPRSLAQALIHYSTSVITPQQTLKEIAVSSRVLGKKSPCNFLVFGLGHDSLMWSSLNYGGRTVFLEEDEAWIKQIKRRFPMLESYHVTYDSKVNQADNLIEVGKGPECTAIGDPRYSMCQLALKGLPAEIYETGWDLIMVDAPTGYYDEAPGRMTAIYTAGMMARNRKQGGETDVFVHDVNREIEDKFSKAFLCEGYMKKQEGRLRHFIIPSYRDGSESESNRPFCP", "failed"),
    ("MSDTVLTGLLDTVWQQFGRGTKDRHHPARHPTLATIGTDGPDLRTLVLRAASHAEATLEFHTDAASPKVAHIRRDARVAIHIWIPKASLQVRAKAIAKILPGDPNLFAQLPEAARMNYQGPVPGTPLPAEPDATPNRFTRLICHLSEIDVLHLTTPHQRAVYTAPDWRGIWVSP", "not failed"),
    ("MKRFIIKSDRIGFSIWEETDLKEALELWGNSNVTKYITADGKMSIEDVKTRLKVEIEFYEKYKVQYWPIFLNETSENLGVCGLHPYNIKDSVFELGVHLREKYWGIGVAEKACNLVMRYAFENLQAKAIFVGHNPNNKASKKLIKKLGFTYTHDEFYEPTGLYHPSYLITCNEFIEVKNKLKGGKIIGKNK", "not failed"),
]

For every item below, please supply its protein production.
1. MNSEQADILDLLSGHTDDTTIERLAFECLLTNMTDDRVVSLMNILGWQGDFNCFAIGGVPSASLASTSLAIRKAVRDLGGEHVVIGTYGTFLLALACQMGAVTPEVTCTAVMPAFSEDEPLYLSPVRSGVAGASHALRETMFSLQAAPALSTPSRPLRADELLPERALLGDDYAREELYRNVYQVLRGENPDDPTYLTVSTFLKYGSSLENTAKELNVHPNTVRYRLKRAAETTGWDATDPRDAYVLTTALAIGRMRDR
2. MRFRQLLPLFGALFALYIIWGSTYFVIRIGVESWPPLMMAGVRFLSAGMLLMAFLLLRGEKLPPLRQTINAALIGLLLLAVGNGLVTVAEHQNVPSGIAAVVVATVPLFTLCFSYFFGIKTRKLEWVGIAIGLAGIILLNSGGNLSGNPWGAILILIGSMSWAFGSVYGSRIALPVGMMAGAIEMLAAGVVLLCAAFLSGEKLATLPGLSGLMAVGYLALFGSIIAINAYMYLIRNVSPALATSYAYVNPVVAVLLGTGLGGERLSPVEWAALGVIVFAVVLVTLGKYLFPARAVVTPCKTEDSRQ
3. MSSSREENVYLAKLAEQAERYEEMVEFMEKVAKTVDTDELTVEERNLLSVAYKNVIGARRASWRIISSIEQKEESRGNDDHVSIIKDYRGKIETELSKICDGILNLLDSHLVPTASLAESKVFYLKMKGDYHRYLAEFKTGAERKEAAESTLVAYKSAQDIALADLAPTHPIRLGLALNFSVFYYEILNSPDRACSLAKQAFDEAISELDTLGEESYKDSTLIMQLLRDNLTLWNSDINDEAGGDEIKEASKHEPEEGKPAETGQ
4. PGMLYEFCLKPDGTMTFPYVSSGCLELIECSPQELQDDASLTFASTYPEDIIGLQEAIANSAKTLQNFEHEWRIITSSGQLKWVKGASRPERKPGGEITWYGYLLDVSEQQAALRERKQADQQLQQQAQLLQSIWEGVD
5. MKIESAQIIELPKILDKRGNLSIIEEFKNIPFKIERTYWIYDVPGGESRGGHAYRENEEFIVALSGSFDVVLDDGNNKKIFSLNRSYYGLYVPKGLWREMNNFSTNSLALILSSTVYEEKDYIRDYNEFLKMKRKLEHHHHHH
6. MKEIVTIENVSFNYHNRAVFKDFNLSIQEGDFLCVLGESGSGKSTLLGLILGLLKPSLGSVKIFNETLSNNAFLRQKIGYIAQGNSLFSHLNAMQNMTFCLNLQGINKQAAQKEAKALALKMGLDESLMDKFPNELSGGQAQRVGIIRGIIHRPELILLDEPFSALDSFNRKNLQDLIKEIHQNSHATFIMVTHDESEAQKLATKTLEIKALKQEQ
7. MKVAGDKIKQARKLKKITQSELANGICTQATISNIENRNLCDSLDIFSSICLRLDLEVEECMMISEEKKIENLLNKVEDLSLRLFHLEAYNLLQEVPEGLILSNNELTTKLLYYKGITCLLGKKDKAEALFYLYRGAEIDRKVNIYNILSLNALGTLYELEKDMRKAQVYYEKSLQELEQFKLECSLERCRIYYNSAKFYSEMKDYQKSVILSEKGIQICRDKHSIYLLDYLLYEKAFNKQMLGEDTADDYRQAYYFTQFFGNTEVLQYIEKDMKAFNISY

1. not failed
2. failed
3. failed
4. failed
5. failed
6. failed
7. failed
